- Tgt: Muscarinic acetylcholine receptor M1 (Homo sapiens)
- Measurement notes: human M1 muscarinic receptor agonists, primary screen, Fluo-8 calcium fluorescence, CHO-K1 cells, HTS (AID 588814);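 further: peak over basal fluorescence ratio within a 140 s kinetic read after compound addition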
- Condition details: CHO-K1 hM1, Fluo-8 calcium fluorescence, agonist mode; at 3 µM; active compounds read high; 0% DMSO, 100% acetylcholine EC100
Screen size: about 360,000 compounds; about 1,200 (0.33%) were called active. This is one part of a sample in which actives are shown more often than they occur.

{"Molecule": "CCCN(C(=O)c1nc2nccc(C)n2n1)c1c(N)n(Cc2ccccc2)c(=O)[nH]c1=O", "Tgt": "Muscarinic acetylcholine receptor M1 (Homo sapiens)", "activation, %": -3.03}
{"Molecule": "COc1cc(OC)c(N2CC(C(=O)Nc3cc(Cl)ccc3N3CCOCC3)CC2=O)cc1Cl (centres undefined)", "Tgt": "Muscarinic acetylcholine receptor M1 (Homo sapiens)", "activation, %": -5.02}
{"Molecule": "CN(CCc1ccccc1)C(=O)c1cccc(NC(=O)Cc2cccc(NC(=O)C3CCCN(C(=O)CCc4ccccc4)C3)c2)c1 (centres undefined)", "Tgt": "Muscarinic acetylcholine receptor M1 (Homo sapiens)", "activation, %": -7.79}
{"Molecule": "CCc1ccc2oc(-c3ccc(N)cc3)nc2c1", "Tgt": "Muscarinic acetylcholine receptor M1 (Homo sapiens)", "activation, %": 6.55}
{"Molecule": "O=C(NCCCN1CCCC1=O)C(=O)NCC1OCCN1S(=O)(=O)c1ccc(Br)cc1 (centres undefined)", "Tgt": "Muscarinic acetylcholine receptor M1 (Homo sapiens)", "activation, %": -4.08}
{"Molecule": "Cc1nc(C(F)(F)F)ccc1C(=O)N1CCC1(C)C(=O)NS(=O)(=O)c1ccccc1Cl (centres undefined)", "Tgt": "Muscarinic acetylcholine receptor M1 (Homo sapiens)", "activation, %": -0.92}
{"Molecule": "CCc1nc2ccc(C(=O)Nc3ccc(OC)c(OC)c3)cn2c1N(C)C(=O)c1cccc(OC)c1", "Tgt": "Muscarinic acetylcholine receptor M1 (Homo sapiens)", "activation, %": -2.95}
{"Molecule": "CCc1nc2ccc(C(=O)Nc3cccc(OC)c3)cn2c1N(CCC(C)C)CCN(C)C", "Tgt": "Muscarinic acetylcholine receptor M1 (Homo sapiens)", "activation, %": 29.4}
{"Molecule": "COc1cc(OC)c(-n2cc(-c3ccc(Cl)cc3)[nH]c2=O)cc1Cl", "Tgt": "Muscarinic acetylcholine receptor M1 (Homo sapiens)", "activation, %": 58}
